system: MCF7; test: Antiproliferative activity against human MCF7 cells assessed as inhibition of cell proliferation measured after 48 hrs by CCK8 assay; type: functional, cell-based; conditions: MCF7, 48 h
Measured GI50 by item
Give a bare numeral; the unit µM is implied.

Examples with answers:
CN1CCN(c2ccc(Nc3ncc(Cl)c(NCc4ccco4)n3)nc2)CC1 :: 21.3
COc1ccc(Nc2nc(Nc3ccc(N4CCN(C)CC4)cn3)ncc2Cl)cc1 :: 8.45
Cc1cccc(Nc2nc(Nc3ccc(N4CCN(C)CC4)cn3)ncc2Cl)c1 :: 7.16
CN1CCN(c2ccc(Nc3ncc(Cl)c(NCCc4ccccc4F)n3)nc2)CC1 :: 8.73
CN1CCN(c2ccc(Nc3ncc(Cl)c(NCc4ccccc4)n3)nc2)CC1 :: 17.3

Proceeding to the next molecule to report its GI50.
Q) Give GI50 for COC[C@@H](C)N[C@H]1CC[C@H](Nc2cc(-c3cccc(NCC4(C#N)CCOCC4)n3)c(Cl)cn2)CC1
A) 43.4
